# assay-protocol: Bioavailability of capsule vs intravenous formulation, end-stage CKD on continuous peritoneal dialysis (Example 9)
# Assay type: in vivo
# run-conditions: human, plasma, 0.24 μg/kg; following oral administration, CPD; read-out: harmonic mean of the terminal elimination half-life (converted)
endpoint-name: half-life

Record C[C@H](/C=C/[C@H](C)C(C)(C)O)[C@H]1CC[C@H]2/C(=C/C=C3C[C@@H](O)C[C@H](O)C3)CCC[C@]12C [Paricalcitol] , field half-life: ~18 h

====

# assay-protocol: Single and multiple dose pharmacokinetics, moderate to severe chronic renal impairment (Example 4, Table 23)
# Format: in vivo, human
# run-conditions: human, plasma, oral, 3 μg; severe renal impairment
# Method: Methodology: This was a Phase 1, open-label, single and multiple-dose, multi-center study. […] Plasma concentrations of paricalcitol were determined using a validated liquid chromatography method with tandem mass spectrometric assay method at Abbott Laboratories, Ill. […]
endpoint-name: fraction unbound
Form field (numeric): enter value without unit.

Record C[C@H](/C=C/[C@H](C)C(C)(C)O)[C@H]1CC[C@H]2/C(=C/C=C3C[C@@H](O)C[C@H](O)C3)CCC[C@]12C , field fraction unbound: 0.0008

====

# assay-protocol: Single and multiple dose pharmacokinetics, moderate to severe chronic renal impairment (Example 4, Table 23)
# Type: in vivo, human
# run-conditions: human, plasma, oral, 4 ug, moderate renal impairment, 4 μg QD, Study Day 8; harmonic mean ± pseudo-standard deviation; read-out: t1/2 (converted)
endpoint-name: half-life (h)
The figure you give is taken to be in h; do not add the unit.

Record C[C@H](/C=C/[C@H](C)C(C)(C)O)[C@H]1CC[C@H]2/C(=C/C=C3C[C@@H](O)C[C@H](O)C3)CCC[C@]12C [Paricalcitol] , field half-life: 15.5

====

# assay-protocol: Single and multiple dose pharmacokinetics, 4 μg QD vs 8 μg TIW, subjects in general good health (Example 5)
# Type: in vivo, human
# run-conditions: human, plasma, oral, 4 ug, Regimen A 4 μg QD, Study Day 13; read-out: AUC0-τ (AUC0-24)
endpoint-name: AUC(0-t)

Record C[C@H](/C=C/[C@H](C)C(C)(C)O)[C@H]1CC[C@H]2/C(=C/C=C3C[C@@H](O)C[C@H](O)C3)CCC[C@]12C [Paricalcitol] , field AUC(0-t): 0.904 ng·h/mL

====

# assay-protocol: Single and multiple dose pharmacokinetics, 4 μg QD vs 8 μg TIW, subjects in general good health (Example 5)
# Assay type: in vivo, human
# run-conditions: human, plasma, oral, 8 ug, Regimen B 8 μg TIW, Study Day 12 and 13
endpoint-name: Tmax
Write the figure, then the unit, nothing else.

Record C[C@H](/C=C/[C@H](C)C(C)(C)O)[C@H]1CC[C@H]2/C(=C/C=C3C[C@@H](O)C[C@H](O)C3)CCC[C@]12C , field Tmax: 4.3 h

====

# assay-protocol: Single and multiple dose pharmacokinetics, moderate to severe chronic renal impairment (Example 4, Table 23)
# Type: in vivo, human
# run-conditions: human, plasma, oral, 4 μg; moderate renal impairment
endpoint-name: fraction unbound
Form field (numeric): enter value without unit.

Record C[C@H](/C=C/[C@H](C)C(C)(C)O)[C@H]1CC[C@H]2/C(=C/C=C3C[C@@H](O)C[C@H](O)C3)CCC[C@]12C [Paricalcitol] , field fraction unbound: 0.0008

====

# assay-protocol: Single and multiple dose pharmacokinetics, moderate to severe chronic renal impairment (Example 4, Table 23)
# Format: in vivo, human
# run-conditions: human, plasma, oral, 3 ug, severe renal impairment, 3 μg, Study Day 1
endpoint-name: Tmax (h)
The figure you give is taken to be in h; do not add the unit.

Record C[C@H](/C=C/[C@H](C)C(C)(C)O)[C@H]1CC[C@H]2/C(=C/C=C3C[C@@H](O)C[C@H](O)C3)CCC[C@]12C , field Tmax: 5.9

====

# assay-protocol: Single and multiple dose pharmacokinetics, moderate to severe chronic renal impairment (Example 4, Table 23)
# Type: in vivo, human
# run-conditions: human, plasma, oral, 4 ug, moderate renal impairment, 4 μg QD, Study Day 8
endpoint-name: Cmax (ng/mL)
The figure you give is taken to be in ng/mL; do not add the unit.

Record C[C@H](/C=C/[C@H](C)C(C)(C)O)[C@H]1CC[C@H]2/C(=C/C=C3C[C@@H](O)C[C@H](O)C3)CCC[C@]12C , field Cmax: 0.155

====

# assay-protocol: Single and multiple dose pharmacokinetics, moderate to severe chronic renal impairment (Example 4, Table 23)
# Type: in vivo, human
# run-conditions: human, plasma, oral, moderate and severe renal impairment (CKD Stage 3 and 4) subjects; read-out: mean half-life
endpoint-name: half-life

Record C[C@H](/C=C/[C@H](C)C(C)(C)O)[C@H]1CC[C@H]2/C(=C/C=C3C[C@@H](O)C[C@H](O)C3)CCC[C@]12C , field half-life: 16 to 23 h

====

# assay-protocol: Single and multiple dose pharmacokinetics, moderate to severe chronic renal impairment (Example 4, Table 23)
# Type: in vivo, human
# run-conditions: human, plasma, oral, 3 ug, severe renal impairment, 3 μg QD, Study Day 8; read-out: AUC0-24
endpoint-name: AUC(0-t)
Write the figure, then the unit, nothing else.

Record C[C@H](/C=C/[C@H](C)C(C)(C)O)[C@H]1CC[C@H]2/C(=C/C=C3C[C@@H](O)C[C@H](O)C3)CCC[C@]12C , field AUC(0-t): 1.75 ng·h/mL

====

# assay-protocol: Single and multiple dose pharmacokinetics, moderate to severe chronic renal impairment (Example 4, Table 23)
# Assay type: in vivo, human
# run-conditions: human, plasma, oral, 4 ug, moderate renal impairment, 4 μg QD, Study Day 8
endpoint-name: Tmax (h)
The figure you give is taken to be in h; do not add the unit.

Record C[C@H](/C=C/[C@H](C)C(C)(C)O)[C@H]1CC[C@H]2/C(=C/C=C3C[C@@H](O)C[C@H](O)C3)CCC[C@]12C , field Tmax: 4.2

====

# assay-protocol: Single and multiple dose pharmacokinetics, 4 μg QD vs 8 μg TIW, subjects in general good health (Example 5)
# Type: in vivo, human
# run-conditions: human, plasma, oral, 8 ug, Regimen B 8 μg TIW, Study Day 12 and 13; harmonic mean ± pseudo-standard deviation
endpoint-name: half-life

Record C[C@H](/C=C/[C@H](C)C(C)(C)O)[C@H]1CC[C@H]2/C(=C/C=C3C[C@@H](O)C[C@H](O)C3)CCC[C@]12C , field half-life: 6.8 h

====

# assay-protocol: Bioavailability of capsule vs intravenous formulation, end-stage renal disease on hemodialysis (Example 3)
# Assay type: in vivo
# run-conditions: human, plasma, 0.24 ug/kg; 0.24 μg/kg single dose, hemodialysis; harmonic mean ± pseudo-standard deviation
endpoint-name: half-life

Record C[C@H](/C=C/[C@H](C)C(C)(C)O)[C@H]1CC[C@H]2/C(=C/C=C3C[C@@H](O)C[C@H](O)C3)CCC[C@]12C , field half-life: ~14 h

====

# assay-protocol: Single and multiple dose pharmacokinetics, 4 μg QD vs 8 μg TIW, subjects in general good health (Example 5)
# Type: in vivo, human
# run-conditions: human, plasma, oral, 4 ug, Regimen A 4 μg QD, Study Day 12; harmonic mean ± pseudo-standard deviation
endpoint-name: half-life (h)
The figure you give is taken to be in h; do not add the unit.

Record C[C@H](/C=C/[C@H](C)C(C)(C)O)[C@H]1CC[C@H]2/C(=C/C=C3C[C@@H](O)C[C@H](O)C3)CCC[C@]12C [Paricalcitol] , field half-life: 6.8

====

# assay-protocol: Single and multiple dose pharmacokinetics, 4 μg QD vs 8 μg TIW, subjects in general good health (Example 5)
# Type: in vivo, human
# run-conditions: human, plasma, oral, 4 ug, Regimen A 4 μg QD, Study Day 13; harmonic mean ± pseudo-standard deviation
endpoint-name: half-life
Write the figure, then the unit, nothing else.

Record C[C@H](/C=C/[C@H](C)C(C)(C)O)[C@H]1CC[C@H]2/C(=C/C=C3C[C@@H](O)C[C@H](O)C3)CCC[C@]12C , field half-life: 5.8 h

====

# assay-protocol: Single and multiple dose pharmacokinetics, 4 μg QD vs 8 μg TIW, subjects in general good health (Example 5)
# Type: in vivo, human
# run-conditions: human, plasma, oral, 8 ug, Regimen B 8 μg TIW, Study Day 12 and 13; read-out: AUC0-τ (AUC0-48)
endpoint-name: AUC(0-t) (ng·h/mL)
The figure you give is taken to be in ng·h/mL; do not add the unit.

Record C[C@H](/C=C/[C@H](C)C(C)(C)O)[C@H]1CC[C@H]2/C(=C/C=C3C[C@@H](O)C[C@H](O)C3)CCC[C@]12C [Paricalcitol] , field AUC(0-t): 2.26

====

# assay-protocol: Single and multiple dose pharmacokinetics, 4 μg QD vs 8 μg TIW, subjects in general good health (Example 5)
# Type: in vivo, human
# run-conditions: human, plasma, oral, 8 ug, Regimen B 8 μg TIW, Study Day 1
endpoint-name: Cmax (ng/mL)
The figure you give is taken to be in ng/mL; do not add the unit.

Record C[C@H](/C=C/[C@H](C)C(C)(C)O)[C@H]1CC[C@H]2/C(=C/C=C3C[C@@H](O)C[C@H](O)C3)CCC[C@]12C , field Cmax: 0.2

Cited source for all entries: patent US20060009425A1
